Reported values of melting point for individual entries

Cc1c(NC(=O)c2cc(S(=O)(=O)Nc3ccc(Cl)cc3)c([N+](=O)[O-])cc2Cl)cccc1[N+](=O)[O-] = 170 to 172 °C
O=C(Nc1ccccc1[N+](=O)[O-])c1cc(S(=O)(=O)Nc2ccc(Cl)cc2)c([N+](=O)[O-])cc1Cl = 150 to 152 °C
Cc1cc([N+](=O)[O-])ccc1NC(=O)c1cc(S(=O)(=O)Nc2ccc(Cl)cc2)c([N+](=O)[O-])cc1Cl = 104 to 106 °C
O=C(Nc1ccc(Br)cc1)c1cc(S(=O)(=O)Nc2ccc(Cl)cc2)c([N+](=O)[O-])cc1Cl = 200 to 202 °C
CCCCNC(=O)c1cc(S(=O)(=O)Nc2ccc(Cl)cc2)c([N+](=O)[O-])cc1Cl = 111 to 113 °C
Cc1ccc(NC(=O)c2cc(S(=O)(=O)Nc3ccc(Cl)cc3)c([N+](=O)[O-])cc2Cl)cc1 = 90 to 92 °C

Value of measured melting point for the entry O=C(Nc1ccccc1Br)c1cc(S(=O)(=O)Nc2ccc(Cl)cc2)c([N+](=O)[O-])cc1Cl : 180 to 182 °C

melting point in this record for COc1ccccc1NC(=O)c1cc(S(=O)(=O)Nc2ccc(Cl)cc2)c([N+](=O)[O-])cc1Cl : 164 to 166 °C

Notebook: O=C(Nc1ccc([N+](=O)[O-])cc1Cl)c1cc(S(=O)(=O)Nc2ccc(Cl)cc2)c([N+](=O)[O-])cc1Cl , melting point read as 214 to 216 °C

melting point reading for Cc1c(Cl)cccc1NC(=O)c1cc(S(=O)(=O)Nc2ccc(Cl)cc2)c([N+](=O)[O-])cc1Cl : 212 to 214 °C

melting point reading for CCCNC(=O)c1cc(S(=O)(=O)Nc2ccc(Cl)cc2)c([N+](=O)[O-])cc1Cl : 116 to 118 °C

Lab note: Cc1cccc(NC(=O)c2cc(S(=O)(=O)Nc3ccc(Cl)cc3)c([N+](=O)[O-])cc2Cl)c1 gave melting point of 102 to 104 °C

melting point measured on O=C(Nc1cccc(Br)c1)c1cc(S(=O)(=O)Nc2ccc(Cl)cc2)c([N+](=O)[O-])cc1Cl = 181 to 183 °C

Query COc1ccc(NC(=O)c2cc(S(=O)(=O)Nc3ccc(Cl)cc3)c([N+](=O)[O-])cc2Cl)cc1 yields melting point of 150 to 152 °C

Entry O=C(NCc1ccco1)c1cc(S(=O)(=O)Nc2ccc(Cl)cc2)c([N+](=O)[O-])cc1Cl — recorded melting point = 191 to 193 °C

----------
- SYSTEM: α-Glucosidase from Saccharomyces cerevisiae (Saccharomyces cerevisiae)
- Sequence (P53341 whole entry): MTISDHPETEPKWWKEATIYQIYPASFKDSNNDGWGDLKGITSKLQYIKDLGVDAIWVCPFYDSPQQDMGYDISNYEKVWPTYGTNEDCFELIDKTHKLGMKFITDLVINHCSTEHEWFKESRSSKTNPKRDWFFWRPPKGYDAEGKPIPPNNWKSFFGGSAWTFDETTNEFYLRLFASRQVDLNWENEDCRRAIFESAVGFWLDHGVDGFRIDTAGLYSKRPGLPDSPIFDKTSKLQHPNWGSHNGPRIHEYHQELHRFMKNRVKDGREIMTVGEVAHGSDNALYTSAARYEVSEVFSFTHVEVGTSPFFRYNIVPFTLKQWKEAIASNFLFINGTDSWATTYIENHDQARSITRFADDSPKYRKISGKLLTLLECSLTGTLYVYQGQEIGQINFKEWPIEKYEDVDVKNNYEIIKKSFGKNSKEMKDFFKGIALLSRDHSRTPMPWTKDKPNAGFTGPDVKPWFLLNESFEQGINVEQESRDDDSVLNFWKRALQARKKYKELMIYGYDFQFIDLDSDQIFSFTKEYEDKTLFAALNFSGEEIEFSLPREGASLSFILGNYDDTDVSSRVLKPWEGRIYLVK
Listing: IC50 of selected molecules
Show the value, then the unit it is measured in.

O=C(Nc1cccc(Cl)c1)c1cc(S(=O)(=O)Nc2ccc(Cl)cc2)c([N+](=O)[O-])cc1Cl [Compound 5i] = 14 µM
CCCNC(=O)c1cc(S(=O)(=O)Nc2ccc(Cl)cc2)c([N+](=O)[O-])cc1Cl [Compound 5s] = 106 µM
Cc1ccccc1NC(=O)c1cc(S(=O)(=O)Nc2ccc(Cl)cc2)c([N+](=O)[O-])cc1Cl [Compound 5c] = 26.8 µM

Next up:
// returns IC50 for Cc1c(NC(=O)c2cc(S(=O)(=O)Nc3ccc(Cl)cc3)c([N+](=O)[O-])cc2Cl)cccc1[N+](=O)[O-] [Compound 5m] with α-Glucosidase from Saccharomyces cerevisiae (Saccharomyces cerevisiae); value = 24.5 µM

----------
The following molecules are listed with their measured melting point values.

O=C(Nc1ccncc1)c1cc(S(=O)(=O)Nc2ccc(Cl)cc2)c([N+](=O)[O-])cc1Cl [Compound 5v] = 197 to 199 °C
O=C(Nc1ccccc1Cl)c1cc(S(=O)(=O)Nc2ccc(Cl)cc2)c([N+](=O)[O-])cc1Cl [Compound 5j] = 176 to 178 °C
Cc1ccccc1NC(=O)c1cc(S(=O)(=O)Nc2ccc(Cl)cc2)c([N+](=O)[O-])cc1Cl [Compound 5c] = 88 to 90 °C
Cc1ccc([N+](=O)[O-])cc1NC(=O)c1cc(S(=O)(=O)Nc2ccc(Cl)cc2)c([N+](=O)[O-])cc1Cl [Compound 5o] = 203 to 205 °C
O=C(Nc1cccc(Cl)c1)c1cc(S(=O)(=O)Nc2ccc(Cl)cc2)c([N+](=O)[O-])cc1Cl [Compound 5i] = 220 to 222 °C
O=C(Nc1ccc([N+](=O)[O-])cc1)c1cc(S(=O)(=O)Nc2ccc(Cl)cc2)c([N+](=O)[O-])cc1Cl [Compound 5q] = 177 to 179 °C

Next up:
Form: molecule = O=C(Nc1cccc([N+](=O)[O-])c1)c1cc(S(=O)(=O)Nc2ccc(Cl)cc2)c([N+](=O)[O-])cc1Cl [Compound 5r] ; melting point = 135 to 137 °C

----------
- SYSTEM: α-Glucosidase from Saccharomyces cerevisiae (Saccharomyces cerevisiae)
PROPERTY LABEL: pIC50
pIC50 here: minus log base 10 of the concentration, concentration in moles per litre.

CCCCNC(=O)c1cc(S(=O)(=O)Nc2ccc(Cl)cc2)c([N+](=O)[O-])cc1Cl = 3.88

// moving on: another record for pIC50
According to the records, this compound O=C(Nc1cccc(Br)c1)c1cc(S(=O)(=O)Nc2ccc(Cl)cc2)c([N+](=O)[O-])cc1Cl displays pIC50 of 4.44

----------
- SYSTEM: α-amylase from malt
- METHOD NOTES: α-Amylase inhibitory assay
- PARTICULARS: in vitro
- From the text: The analytical grade chemicals and reagents were used as such in experiments without any purification. Decibel melting point apparatus was used for checking the melting point of the synthesized compounds and are reported as uncorrected. The silica gel-precoated aluminum sheets for thin-layer chromatography (TLC) were employed to keep a vigil of the reaction progress. […]
t if IC50 is below 10 µM. f if not; exact matches included in f.

Answered examples (3):
O=C(Nc1ccncc1)c1cc(S(=O)(=O)Nc2ccc(Cl)cc2)c([N+](=O)[O-])cc1Cl [Compound 5v] = f
Cc1ccc(NC(=O)c2cc(S(=O)(=O)Nc3ccc(Cl)cc3)c([N+](=O)[O-])cc2Cl)cc1 [Compound 5a] = t
Cc1ccccc1NC(=O)c1cc(S(=O)(=O)Nc2ccc(Cl)cc2)c([N+](=O)[O-])cc1Cl [Compound 5c] = t

Qu. Given O=C(Nc1ccccc1[N+](=O)[O-])c1cc(S(=O)(=O)Nc2ccc(Cl)cc2)c([N+](=O)[O-])cc1Cl [Compound 5k] , is recorded IC50 strictly lower than 10 µM?
Ans. f

Qu. I wonder whether Cc1cc([N+](=O)[O-])ccc1NC(=O)c1cc(S(=O)(=O)Nc2ccc(Cl)cc2)c([N+](=O)[O-])cc1Cl [Compound 5p] has IC50 below 10 µM. Can you tell?
Ans. t

Qu. Quick check: IC50 of C[C@H]1O[C@H](O[C@H]2[C@H](O)[C@@H](O)[C@@H](O[C@H]3[C@H](O)[C@@H](O)C(O)O[C@@H]3CO)O[C@@H]2CO)[C@H](O)[C@@H](O)[C@@H]1N[C@H]1C=C(CO)[C@@H](O)[C@H](O)[C@H]1O (stereo partly shown) [Acarbose, reference compound] under 10 µM?
Ans. t

Qu. I'd appreciate it if you could check whether O=C(Nc1cccc(Cl)c1)c1cc(S(=O)(=O)Nc2ccc(Cl)cc2)c([N+](=O)[O-])cc1Cl [Compound 5i] has IC50 smaller than 10 µM.
Ans. f

Qu. is_below(IC50, 10 µM) for O=C(Nc1ccc(Br)cc1)c1cc(S(=O)(=O)Nc2ccc(Cl)cc2)c([N+](=O)[O-])cc1Cl [Compound 5f] ?
Ans. f

Qu. Decide: IC50 of O=C(Nc1ccccc1Br)c1cc(S(=O)(=O)Nc2ccc(Cl)cc2)c([N+](=O)[O-])cc1Cl [Compound 5h] strictly below 10 µM?
Ans. f

Qu. Please indicate whether the reported IC50 of O=C(Nc1ccc([N+](=O)[O-])cc1)c1cc(S(=O)(=O)Nc2ccc(Cl)cc2)c([N+](=O)[O-])cc1Cl [Compound 5q] is strictly below 10 µM.
Ans. f

Qu. Is IC50 strictly under 10 µM for the entry O=C(Nc1ccc([N+](=O)[O-])cc1Cl)c1cc(S(=O)(=O)Nc2ccc(Cl)cc2)c([N+](=O)[O-])cc1Cl [Compound 5n] ?
Ans. f

Qu. Lab log: compare recorded IC50 with 10 µM; is it strictly lower for Cc1c(Cl)cccc1NC(=O)c1cc(S(=O)(=O)Nc2ccc(Cl)cc2)c([N+](=O)[O-])cc1Cl [Compound 5l] ?
Ans. t

Qu. Here's an entry: COc1ccc(NC(=O)c2cc(S(=O)(=O)Nc3ccc(Cl)cc3)c([N+](=O)[O-])cc2Cl)cc1 [Compound 5d] . Is its IC50 below 10 µM?
Ans. f

These measurements were taken from paper PMC7416410.
